- EXPERIMENTAL_SYSTEM: FLT3-D835Y (Homo sapiens, UniProt P36888, D835Y)
- Construct: purchased Invitrogen PV3967
- ASSAY_NOTES: FLT3-D835Y biochemical kinase assay (AlphaScreen)
PARAMETER_MEASURED: IC50

Before answering, review these 2 worked examples.
1. COc1cc(-c2cnc3[nH]cc(-c4ccc5ncn(C(C)(C)C)c5c4)c3c2)c(OC)nn1 [P-292] | 0.0001 to 1 µM
2. FC(F)(F)Oc1cccc(-c2cnc3[nH]cc(-c4ccc5ncn(C6CCCNC6)c5c4)c3n2)c1 (centres unmarked) [P-193] | 0.0001 to 1 µM

Req: Recall the recorded IC50 for COc1cnc2[nH]cc(-c3cnc4c(c3)ncn4C)c2c1 [P-055] with FLT3-D835Y (Homo sapiens, UniProt P36888, D835Y) and state it.
Resp: 10 to 200 µM

Req: Recall the recorded IC50 for N#Cc1cc(-c2cnc3[nH]cc(-c4ccc5ncn(-c6ccc(F)cc6)c5c4)c3c2)ccc1F [P-209] with FLT3-D835Y (Homo sapiens, UniProt P36888, D835Y) and state it.
Resp: 0.0001 to 1 µM

Req: Recall the recorded IC50 for O=C(NC1CC1)c1cccc(-c2cnc3[nH]cc(-c4ccc5ncsc5c4)c3n2)c1 [P-162] with FLT3-D835Y (Homo sapiens, UniProt P36888, D835Y) and state it.
Resp: 0.0001 to 1 µM

Req: Recall the recorded IC50 for CC(C)n1cnc2ccc(-c3c[nH]c4ncc(-c5cccc(NS(C)(=O)=O)c5)nc34)cc21 [P-080] with FLT3-D835Y (Homo sapiens, UniProt P36888, D835Y) and state it.
Resp: 0.0001 to 1 µM

Req: Recall the recorded IC50 for CC(C)n1cnc2ccc(-c3c[nH]c4ncc(-c5cnn(C(F)F)c5)cc34)cc21 [P-267] with FLT3-D835Y (Homo sapiens, UniProt P36888, D835Y) and state it.
Resp: 0.0001 to 1 µM

Req: Recall the recorded IC50 for CCN1CCN(c2cc(-c3cnc4[nH]cc(-c5ccc6ncn(C7CCCNC7)c6c5)c4n3)ccn2)CC1 (centres unmarked) [P-327] with FLT3-D835Y (Homo sapiens, UniProt P36888, D835Y) and state it.
Resp: 0.0001 to 1 µM
